biological target: human C5 protein (human, UniProt P01031 19-673; P01031 678-1676); assay: cell-based or functional assay
Positions of bridges follow the written chain, without caps; N, C: chain ends. Non-standard residues stand in square brackets, D forms with d. Primed or numbered codes have the meaning given here. No end group written: not given here. *: point of attachment. mXylyl″ = bridging moiety between the two marked residues; Trp(7-aza) = N[C@@H](Cc1c[nH]c2ncccc12)C(=O)O; dPhg = N[C@@H](C(=O)O)c1ccccc1; Chg = N[C@H](C(=O)O)C1CCCCC1; Phg = N[C@H](C(=O)O)c1ccccc1; Tle = CC(C)(C)[C@H](N)C(=O)O; NMeS = CN[C@@H](CO)C(=O)O; Heptanoyl = CCCCCCC(=O)*; Nva = CCC[C@H](N)C(=O)O; Sar = CNCC(=O)O
measure: Avg. IC50, human hemolysis assay (complete human sera) (nM)

binder="Ac-[Nva]C[Phg]T[Trp(7-aza)]EY[NMeS]HC[Nva]P[Nva] (bridge 2-10) [R3040]" output_unit=nM limit_qualifier=> value_observed=100000
binder="Ac-[Nva]CYEN[Tle]Y[Trp(7-aza)]EY[Sar][Nva][NMeS]-NH2 (SMILES CCC[C@H](NC(C)=O)C(=O)N[C@@H](CS)C(=O)N[C@@H](Cc1ccc(O)cc1)C(=O)N[C@@H](CCC(=O)O)C(=O)N[C@@H](CC(N)=O)C(=O)N[C@H](C(=O)N[C@@H](Cc1ccc(O)cc1)C(=O)N[C@@H](Cc1c[nH]c2ncccc12)C(=O)N[C@@H](CCC(=O)O)C(=O)N[C@@H](Cc1ccc(O)cc1)C(=O)N(C)CC(=O)N[C@@H](CCC)C(=O)N(C)[C@@H](CO)C(N)=O)C(C)(C)C) [R3001]" output_unit=nM limit_qualifier== value_observed=67.2
binder="Ac-[Nva][Nva]YEN[Tle]Y[Trp(7-aza)]EYP[Chg][Nva]K (not fully specified (residue 14, C-terminus); printed as Ac-Nvl-Nvl-Y-E-N-Tbg-Y-azaTrp-E-Y-P-Chg-Nvl-K-(PEG2000) NH2; also: PEG2000 at C-terminal Lys, attachment site unstated) [R3077]" output_unit=nM limit_qualifier== value_observed=81.7
binder="Ac-YPYC[Phg][Trp(7-aza)][Tle]E[Nva]NY[Nva]E-NH2 (SMILES CCC[C@H](NC(=O)[C@H](Cc1ccc(O)cc1)NC(=O)[C@H](CC(N)=O)NC(=O)[C@H](CCC)NC(=O)[C@H](CCC(=O)O)NC(=O)[C@@H](NC(=O)[C@H](Cc1c[nH]c2ncccc12)NC(=O)[C@@H](NC(=O)[C@H](CS)NC(=O)[C@H](Cc1ccc(O)cc1)NC(=O)[C@@H]1CCCN1C(=O)[C@H](Cc1ccc(O)cc1)NC(C)=O)c1ccccc1)C(C)(C)C)C(=O)N[C@@H](CCC(=O)O)C(N)=O, negative control in the FP assays; also called control polypeptide; scrambled polypeptide variant of R3002) [R3023]" output_unit=nM limit_qualifier=> value_observed=100000
binder="Heptanoyl-[Nva]C[dPhg]T[Trp(7-aza)]EY[NMeS]AC[Nva]-NH2 (linker 2-10 via mXylyl″; not fully specified; printed as [mXylyl(2,10)]heptanoyl-Nvl-C-(D-Phg)-T-azaTrp-E-Y-(N-Me)S-A-C-Nvl-NH2) [R3136]" output_unit=nM limit_qualifier=> value_observed=50000
binder="Ac-CAERFCD[Tle]YWEYP[Phg][Nva]-NH2 (linker 1-6 via mXylyl″) [R3148]" output_unit=nM limit_qualifier== value_observed=8.5
binder="Ac-[Nva]CYNN[Tle]E[Trp(7-aza)]ECP[Phg][Tle]-NH2 (cysteine pairing not given here) [R3126]" output_unit=nM limit_qualifier=> value_observed=3000
